Target: human FSH receptor (Homo sapiens, UniProt P23945)
Sequence (P23945 18-695): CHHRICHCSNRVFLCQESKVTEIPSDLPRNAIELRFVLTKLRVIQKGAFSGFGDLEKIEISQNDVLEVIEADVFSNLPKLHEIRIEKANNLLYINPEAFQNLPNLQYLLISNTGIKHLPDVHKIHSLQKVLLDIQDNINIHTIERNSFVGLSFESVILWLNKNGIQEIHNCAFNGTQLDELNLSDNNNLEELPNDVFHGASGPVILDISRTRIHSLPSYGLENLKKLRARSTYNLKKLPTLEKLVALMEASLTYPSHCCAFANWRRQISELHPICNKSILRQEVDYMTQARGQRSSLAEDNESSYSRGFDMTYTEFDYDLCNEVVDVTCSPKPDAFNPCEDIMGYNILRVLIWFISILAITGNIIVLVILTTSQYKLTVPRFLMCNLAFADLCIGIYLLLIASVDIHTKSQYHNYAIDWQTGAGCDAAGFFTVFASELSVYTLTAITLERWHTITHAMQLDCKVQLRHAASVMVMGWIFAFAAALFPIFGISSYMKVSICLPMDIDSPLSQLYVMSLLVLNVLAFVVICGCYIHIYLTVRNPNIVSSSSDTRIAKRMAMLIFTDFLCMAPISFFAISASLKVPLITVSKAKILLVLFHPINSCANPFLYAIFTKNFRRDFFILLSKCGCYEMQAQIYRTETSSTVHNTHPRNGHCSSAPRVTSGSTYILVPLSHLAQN
Test: HTRF assay for measuring cAMP in cells (FSH antagonism)
Conditions: hFSHR clone 16 cells (CHO cells stably transfected with the human FSH receptor); in the presence of 1 e-9 mol/l hFSH; 37°C for 2h
Quantity: IC50 (nM)
Field: numeric (nM). Do not append units.

Worked cases, IC50 given:
{"Compound": "CCC1Cc2cc(-c3ccc(OC)c(OC)c3)cc(C(=O)N[C@@H](CO)Cc3c[nH]c4ccccc34)c2O1 (stereo partly shown) [Example 13]", "Readout number": 150}
{"Compound": "CNC(=O)c1ccc(-c2cc3c(c(C(=O)N[C@@H](CO)Cc4c[nH]c5ccccc45)c2)OCC=C3)cc1Cl [Example 2]", "Readout number": 130}
{"Compound": "Cc1ccccc1C#Cc1cc2c(c(C(=O)N[C@@H](CO)Cc3c[nH]c4ccccc34)c1)OCC=C2 [Example 4]", "Readout number": 450}

Per the record, C=CC1Cc2cc(-c3ccc(OC)c(OC)c3)cc(C(=O)N[C@@H](CO)Cc3c[nH]c4ccccc34)c2O1 (mixture of isomers) [Example 12] has IC50 of 350

What the record says about CNC(=O)c1ccc(-c2cc3c(c(C(=O)N[C@@H](CO)Cc4c[nH]c5ccccc45)c2)OCCO3)cc1Cl [Example 14] : IC50 is 450

Entry CNC(=O)c1cc(F)cc(-c2cc3c(c(C(=O)N[C@@H](CO)Cc4c[nH]c5ccccc45)c2)OC(C)(C)C=C3)c1 [Example 8] , IC50 reported as 14

Sample COc1cc(-c2cc3c(c(C(=O)N[C@@H](CO)Cc4c[nH]c5ccccc45)c2)OCC3)cc(F)c1F [Example 20] ; IC50 observed: 2000
